- System: NCI/ADR-RES ovarian
- experiment: NCI tumour cell line growth inhibition, 48 h; in the data active = GI50 below about 0.43 µM; inactive = the rest
Assign a class; possible classes are Yes (active), No (inactive)

Examples from the recorded data:
Cc1nc2ccc(Nc3nc(Cl)nc(N4CCOCC4)n3)cc2n1Cc1ccccc1 ... No
CCSCC1CC(O)(c2ccccc2)CC(c2ccc(F)cc2)O1 (stereo not given) ... No
Cc1cc(S(=O)(=O)Nc2nc3ccccc3o2)c(SCc2ccccc2)cc1Cl ... No

Please share the test call associated with `Cc1cc2nc3c4cc(O)ccc4n(CCN(C)C)c3nc2cc1C` .
No

And `COC[C@@H](N=C1NC(=O)/C(=C/c2ccc3ncccc3c2)S1)c1ccccc1` ?
No

And `O=[N+]([O-])c1cccc2nc3ccccc3c(NCCCn3ccnc3[N+](=O)[O-])c12` ?
Yes

----------
- System: RPMI-8226 leukemia
- experiment: NCI tumour cell line growth inhibition, 48 h
Parameter TGI: see the listing below.
Return type: number; implicit unit µM.

Cc1c(N2C(=O)/C(=C/c3ccc(Cl)cc3)N=C2c2ccccc2)c(=O)n(-c2ccccc2)n1C ... 42.9

Next, consider the following compound.
Form field: reported TGI of `CC(C)=CCC[C@]1(C)C=Cc2c(O)c3c(c(CC=C(C)C)c2O1)O[C@]12C(=C[C@@H]4CC1C(C)(C)O[C@@]2(C/C=C(/C)C(=O)O)C4=O)C3=O`
1.61

----------
- System: K-562 leukemia
- experiment: NCI tumour cell line growth inhibition, 48 h
quantity.name: TGI

COc1ccc(N=Nc2c(C)c(C#N)c(=S)n(C3OC(CO)C(O)C(O)C3O)c2-c2ccccc2)cc1 (configuration not stated) ... > 100 µM
CCN1C/C(=C\c2cc(OC)c(OC)cc2OC)C(=O)/C(=C/c2cc(OC)c(OC)cc2OC)C1 ... > 100 µM
CC(=O)OCC1OC(n2cc(F)c(=O)[nH]c2=O)C(NC(=O)N(CCCl)N=O)C(OC(C)=O)C1OC(C)=O (configuration not stated) ... > 100 µM
Nc1ncnc2c1sc1nc3ccccc3n12 ... > 100 µM

Form field: reported TGI of `CCOC(=O)c1ccc(NC(=O)Nc2nncs2)cc1`
> 46.6 µM

And O=C1NC(Cc2ccc(O)cc2)C(=O)N2CCCC12 (configuration not stated) ?
> 100 µM

And `O=S(=O)(NCCCNc1nccc(-c2c(-c3ccc(O)cc3)nc3sccn23)n1)c1ccc(F)cc1` ?
> 100 µM

And `C=C1C(=O)O[C@H]2C/C(C)=C/CC[C@@]3(C)O[C@](C)(CC[C@@H]3I)[C@@H](I)C[C@@H]12` ?
29.9 µM

And `Cc1nc(N)c(N2CCN(C(=O)O)CC2)c(=O)[nH]1` ?
> 100 µM

And `c1ccc2c(Cc3[nH]c4ccccc4c3Cc3c[nH]c4ccccc34)c[nH]c2c1` ?
10.5 µM

And `CN(c1ncccc1CNc1nc(Nc2ccc3c(c2)CC(=O)N3)ncc1C(F)(F)F)S(C)(=O)=O` ?
> 100 µM

And CC[C@H](C)[C@H]1NC(=O)[C@@H](NC(=O)[C@@H](CC(C)C)N(C)C(=O)C2CCCN2C(=O)[C@H](C)O)[C@@H](C)OC(=O)[C@H](Cc2ccc(OC)cc2)N(C)C(=O)[C@@H]2CCCN2C(=O)[C@H](CCCCNC(=O)OCc2ccccc2)NC(=O)[C@H](C)C(=O)[C@H](C(C)C)OC(=O)C[C@@H]1O (some centres not stated) ?
> 25 µM

And `CCN(CC)c1ccc(/C=N/NC(=O)CSc2nc3ccccc3c(=O)n2CCc2ccc(S(N)(=O)=O)cc2)c(O)c1` ?
> 100 µM

And `O=C(Nc1ccc2[nH]nc(-c3ccncc3)c2c1)[C@@H]1CCN(CC(=O)N2CCN(c3ccc(-c4ncccn4)cc3)CC2)C1` ?
> 73.2 µM
